Target: T1, GPR39 (G protein coupled receptor 39) (UniProt O43194 1-453, limits assumed)
T1 sequence (looked up): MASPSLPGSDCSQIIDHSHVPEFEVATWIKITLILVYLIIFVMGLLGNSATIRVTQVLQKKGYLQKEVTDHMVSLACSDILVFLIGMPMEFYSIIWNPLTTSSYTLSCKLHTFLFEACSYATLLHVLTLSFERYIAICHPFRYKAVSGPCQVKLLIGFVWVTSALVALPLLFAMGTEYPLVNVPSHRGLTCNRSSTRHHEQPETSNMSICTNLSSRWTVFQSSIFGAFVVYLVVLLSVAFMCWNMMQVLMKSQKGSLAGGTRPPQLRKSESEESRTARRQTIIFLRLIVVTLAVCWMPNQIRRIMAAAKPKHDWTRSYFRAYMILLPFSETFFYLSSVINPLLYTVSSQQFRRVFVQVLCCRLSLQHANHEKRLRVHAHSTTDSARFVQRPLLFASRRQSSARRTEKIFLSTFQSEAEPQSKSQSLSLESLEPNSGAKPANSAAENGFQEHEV
Assay: cell-based or functional assay
Square brackets hold non-standard residues; d marks the D form. Ends that are not written are not given here. * marks the point of attachment. 2‑(4-tert-butyl)phenyl = 2-(4-tert-butylphenyl) substituent on the histidine imidazole (2-(4-(tert-butyl)phenyl)-1H-imidazol-4-yl), CC(C)(C)c1ccc(*)cc1; dPhe(4-Me) = Cc1ccc(C[C@@H](N)C(=O)O)cc1; Trt = c1ccc(C(c2ccccc2)(c2ccccc2)*)cc1; Benzhydryl = c1ccc(C(c2ccccc2)*)cc1; Myristoyl = CCCCCCCCCCCCCC(=O)*; Octanoyl = CCCCCCCC(=O)*
METRIC_NAME: EC50; SRE-luciferase reporter (nM)
Just the number in nM, nothing appended.

Please review the entries below; each comes with its answer.
BINDER	EC50; SRE-luciferase reporter [nM]
H(Benzhydryl)K(Octanoyl)[dPhe(4-Me)]Y [HKFY-34]	7
[dH](Benzhydryl)K(Octanoyl)[dPhe(4-Me)]Y-OH [HKFY-62]	830
HK(Octanoyl)FY (not fully specified (residue 1)) [HKFY-17]	8120
H(2‑(4-tert-butyl)phenyl)K(Octanoyl)[dPhe(4-Me)]Y-OH [HKFY-60]	190
H(Trt)K(Octanoyl)[dPhe(4-Me)]Y [HKFY-30]	8

Please find the next binder below.
Value of EC50; SRE-luciferase reporter reported for the binder H(Trt)K(Myristoyl)FY-OH [HKFY-26] is 280

Entry source: patent US20250340591A1
